target_under_test: Mitogen-activated protein kinase 8 (Homo sapiens)
Sequence (P45983 whole entry): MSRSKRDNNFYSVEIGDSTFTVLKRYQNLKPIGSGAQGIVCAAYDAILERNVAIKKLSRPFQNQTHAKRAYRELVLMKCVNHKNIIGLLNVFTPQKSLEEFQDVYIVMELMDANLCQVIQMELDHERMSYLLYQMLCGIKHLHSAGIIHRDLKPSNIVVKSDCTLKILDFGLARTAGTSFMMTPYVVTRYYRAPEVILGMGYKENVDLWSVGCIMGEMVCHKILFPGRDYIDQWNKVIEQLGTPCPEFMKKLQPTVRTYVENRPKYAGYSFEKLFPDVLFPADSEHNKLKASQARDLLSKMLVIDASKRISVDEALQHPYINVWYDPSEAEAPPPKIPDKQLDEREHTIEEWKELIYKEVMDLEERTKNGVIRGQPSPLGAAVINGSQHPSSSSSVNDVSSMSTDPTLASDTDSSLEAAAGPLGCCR
method_summary: Inhibition of recombinant JNK1 after 60 mins by TR-FRET assay
outcome_measure: IC50 (µM)

CCOC(=O)c1sccc1NC(=O)Cc1ccccc1; 0.3
COC(=O)c1sccc1NC(=O)Cc1ccc(-n2ccnc2)cc1; 1
COC(=O)c1sccc1NC(=O)Cc1ccccc1-c1c[nH]nn1; 7
Cn1ccc(-c2sccc2NC(=O)Cc2cccc3ccccc23)n1; 24.1

A: O=C(Cc1cccc2ncccc12)Nc1ccsc1-c1nnc[nH]1
B: O=C(Cc1cccc2ccccc12)Nc1ccsc1-n1ccnc1
I need your help: which of the pair A , B has higher IC50? I would appreciate it if you answered with the label of your choice.
B

====

target_under_test: Mitogen-activated protein kinase 9 (Homo sapiens)
method_summary: Inhibition of recombinant JNK2 after 60 mins by TR-FRET assay
outcome_measure: IC50 (µM)

A: Cc1nnc(-c2sccc2NC(=O)Cc2cccc3ccccc23)o1
B: COC(=O)c1sccc1NC(=O)Cc1ccccc1-c1c[nH]nn1
I need your help: which of the pair A , B has higher IC50? I would appreciate it if you answered with the label of your choice.
B

====

method_summary: Metabolic stability in human liver microsomes assessed as compound remaining after 30 mins
Type: ADME, Microsome
condition: read-out: Stability
outcome_measure: remaining at 0.5 h (%)

O=C(Cc1cccc2cnccc12)Nc1scnc1-c1cscn1; 79

I: COc1ccc(CC(=O)Nc2ccsc2N2CCOC2=O)cc1
II: Cc1cc(-c2sccc2NC(=O)Cc2cccc3ccccc23)n[nH]1
Would you mind telling me which has the lower recorded remaining at 0.5 h between I and II ? I would appreciate it if you answered with the label of your choice.
II
(II: 2%, I: 83%)

====

target_under_test: Mitogen-activated protein kinase 9 (Homo sapiens, UniProt P45984)
Sequence (P45984 whole entry): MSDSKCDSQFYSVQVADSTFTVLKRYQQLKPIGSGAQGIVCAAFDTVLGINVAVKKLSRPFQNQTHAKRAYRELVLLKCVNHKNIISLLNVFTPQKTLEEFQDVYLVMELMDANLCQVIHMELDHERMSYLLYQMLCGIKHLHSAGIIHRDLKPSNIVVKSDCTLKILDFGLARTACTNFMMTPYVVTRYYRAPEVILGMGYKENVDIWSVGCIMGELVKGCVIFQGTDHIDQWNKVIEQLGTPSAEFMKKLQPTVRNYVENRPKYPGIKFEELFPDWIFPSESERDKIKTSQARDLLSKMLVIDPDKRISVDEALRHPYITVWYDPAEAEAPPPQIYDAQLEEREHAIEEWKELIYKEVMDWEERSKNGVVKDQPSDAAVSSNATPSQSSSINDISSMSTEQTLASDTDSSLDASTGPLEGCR
method_summary: Inhibition of recombinant JNK2 after 60 mins by TR-FRET assay
pIC50: −log10 of the molar value.
outcome_measure: pIC50

Look over these answered cases.
O=C(Cc1cccc2ccccc12)Nc1ccsc1-c1nnco1; 4.57
COc1ccc(CC(=O)Nc2ccsc2-c2nc(C(F)(F)F)n[nH]2)cc1; 4.82
O=C(Cc1cccc2ncccc12)Nc1ccsc1-c1nnc[nH]1; 6.15

I: Cc1n[nH]c(-c2sccc2NC(=O)Cc2cccc3ccccc23)n1
II: O=C(Cc1cccc2cnccc12)Nc1ccsc1-c1cscn1
III: Cc1cc(-c2sccc2NC(=O)Cc2cccc3ccccc23)n[nH]1
IV: COC(=O)c1cnccc1NC(=O)Cc1cccc2ccccc12
V: COC(=O)c1sccc1NC(=O)Cc1ccc(OC)cc1
Arrange the 5 molecules by rising pIC50, starting with the smallest. Answer by listing the labels in the requested order.
IV, V, I, III, II
(IV: 4.63, V: 4.85, I: 5.62, III: 5.82, II: 6.03)

====

target_under_test: Mitogen-activated protein kinase 10 (Homo sapiens, UniProt P53779)
Sequence (P53779 whole entry): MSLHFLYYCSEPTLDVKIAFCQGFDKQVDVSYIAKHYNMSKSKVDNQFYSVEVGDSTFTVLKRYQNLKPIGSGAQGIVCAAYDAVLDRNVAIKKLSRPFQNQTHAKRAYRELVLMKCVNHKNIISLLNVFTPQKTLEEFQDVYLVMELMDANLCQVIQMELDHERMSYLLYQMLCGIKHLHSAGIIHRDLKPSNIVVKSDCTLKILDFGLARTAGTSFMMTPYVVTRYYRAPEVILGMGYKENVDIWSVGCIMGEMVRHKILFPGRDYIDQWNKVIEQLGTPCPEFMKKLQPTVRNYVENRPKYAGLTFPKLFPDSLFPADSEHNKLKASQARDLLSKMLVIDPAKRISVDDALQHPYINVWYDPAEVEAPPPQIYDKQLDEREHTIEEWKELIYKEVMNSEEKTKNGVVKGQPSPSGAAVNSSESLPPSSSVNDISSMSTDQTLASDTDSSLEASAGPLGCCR
method_summary: Inhibition of recombinant JNK3 after 60 mins by TR-FRET assay
pIC50: −log10 of the molar value.
outcome_measure: pIC50

COC(=O)c1sccc1NC(=O)Cc1cccc2cnccc12; 6.21
Cc1nnc(-c2sccc2NC(=O)Cc2cccc3ccccc23)o1; 5.68
Cc1nc(-c2sccc2NC(=O)Cc2cccc3ccccc23)n(C)n1; 4.50

I: Cn1ccc(-c2sccc2NC(=O)Cc2cccc3ccccc23)n1
II: COc1ccc(CC(=O)Nc2ccsc2-n2nccn2)cc1
III: COC(=O)c1sccc1NC(=O)Cc1cccc2ncccc12
Order the items by recorded pIC50; the first position goes to the largest value. Answer by listing the labels in the requested order.
III, II, I
(III: 6.21, II: 5.82, I: 4.37)

A: CC(C)OC(=O)c1sccc1NC(=O)Cc1ccccc1
B: COC(=O)c1sccc1NC(=O)Cc1ccccc1-c1c[nH]nn1
C: COC(=O)c1cscc1NC(=O)Cc1cccc2ccccc12
Order the items by recorded pIC50; the first position goes to the largest value. Answer by listing the labels in the requested order.
C, A, B
(C: 6.05, A: 5.85, B: 4.90)

1: O=C(Cc1cccc2ncccc12)Nc1ccsc1-c1nnc[nH]1
2: COc1ccc(CC(=O)Nc2ccsc2-n2cncn2)cc1
3: COC(=O)c1sccc1NC(=O)Cc1ccc2ccccc2c1
4: COC(=O)c1ccccc1NC(=O)Cc1cccc2ccccc12
Arrange the 4 compounds by rising pIC50, starting with the smallest. Answer by listing the labels in the requested order.
2, 3, 4, 1
(2: 4.34, 3: 5.41, 4: 5.77, 1: 6.25)

P: COC(=O)c1sccc1NC(=O)Cc1ccc(-n2ccnc2)cc1
Q: CCOC(=O)c1sccc1NC(=O)Cc1ccccc1
I need your help: which of the pair P , Q has higher pIC50? I would appreciate it if you answered with the label of your choice.
Q
(Q: 6.15, P: 5.80)
